System Tested: acetylcholine receptor
Assay Details: SPR, receptor immobilized on CM5 chip, peptide 10 uM
Lab note: anything with Binding affinity (RU) at or over 40 RU counts as condition met; the rest go in condition not met.

Problem: Decide: Binding affinity (RU) of RKWLTR [6mer-1-287] >= 40 RU?
Result: condition met

Problem: Decide: Binding affinity (RU) of KQVSKR [6mer-2-407] >= 40 RU?
Result: condition met

Problem: Decide: Binding affinity (RU) of RKCWWR [6mer-1-894] >= 40 RU?
Result: condition not met

Problem: Decide: Binding affinity (RU) of RSRYKK [6mer-2-419] >= 40 RU?
Result: condition met

Problem: Decide: Binding affinity (RU) of RRDTGR [6mer-1-900] >= 40 RU?
Result: condition not met

Problem: Decide: Binding affinity (RU) of RLVCKR [6mer-2-445] >= 40 RU?
Result: condition met

Problem: Decide: Binding affinity (RU) of RKFSNK [6mer-1-886] >= 40 RU?
Result: condition not met

Problem: Decide: Binding affinity (RU) of RKQQTK [6mer-1-315] >= 40 RU?
Result: condition met

Problem: Decide: Binding affinity (RU) of KKNWPR [6mer-1-931] >= 40 RU?
Result: condition not met

Problem: Decide: Binding affinity (RU) of KRPCHR [6mer-1-872] >= 40 RU?
Result: condition not met

Problem: Decide: Binding affinity (RU) of KRFWWK [6mer-1-913] >= 40 RU?
Result: condition not met

Problem: Decide: Binding affinity (RU) of KKWVQK [6mer-1-283] >= 40 RU?
Result: condition met

Problem: Decide: Binding affinity (RU) of KKQIRK [6mer-1-291] >= 40 RU?
Result: condition met

Problem: Decide: Binding affinity (RU) of RRESMR [6mer-1-918] >= 40 RU?
Result: condition not met

Problem: Decide: Binding affinity (RU) of RRIPHR [6mer-1-893] >= 40 RU?
Result: condition not met

Problem: Decide: Binding affinity (RU) of RWYSKR [6mer-2-455] >= 40 RU?
Result: condition met

Problem: Decide: Binding affinity (RU) of RRQYRK [6mer-2-420] >= 40 RU?
Result: condition met
